Assay: Cytotoxicity against mouse NIH/3T3 cells after 48 hrs by neutral red uptake assay
Assay type: cell-based, NIH3T3
Conditions: read-out: TC50
observed_property: log10(CC50 at 48 h) (log10 of the value in µM)
Annotation: log10 of CC50 at 48 h, µM basis.

Worked cases, log10(CC50 at 48 h) given:
Input line: Need log10(CC50 at 48 h), item `CC(C)Oc1ccc(N2CCN(Cc3ccccc3)CC2)cc1NC(=O)c1cnccn1`
Output line: 1.67

Input line: Need log10(CC50 at 48 h), item `CC(=O)Nc1ccc(CN2CCN(c3ccc(OC(C)C)c(NC(=O)c4cnccn4)c3)CC2)cc1`
Output line: 0.89

Input line: Need log10(CC50 at 48 h), item `CC(C)Oc1ccc(N2CCN(Cc3ccc(Cl)cc3)CC2)cc1NC(=O)c1cnccn1`
Output line: 0.20

Input line: Need log10(CC50 at 48 h), item `CCN(CC)c1ccc(CN2CCN(c3ccc(OC(C)C)c(NC(=O)c4cnccn4)c3)CC2)cc1`
Output line: 1.50

Others:
Input line: Need log10(CC50 at 48 h), item `CC(C)Oc1ccc(N2CCN(Cc3ccc(N)cc3)CC2)cc1NC(=O)c1cnccn1`
Output line: 1.03

Input line: Need log10(CC50 at 48 h), item `CC(C)Oc1ccc(N2CCN(Cc3ccc([N+](=O)[O-])cc3)CC2)cc1NC(=O)c1cnccn1`
Output line: 1.47

---

Target: UniProtKB P51681
Sequence (P51681 whole entry): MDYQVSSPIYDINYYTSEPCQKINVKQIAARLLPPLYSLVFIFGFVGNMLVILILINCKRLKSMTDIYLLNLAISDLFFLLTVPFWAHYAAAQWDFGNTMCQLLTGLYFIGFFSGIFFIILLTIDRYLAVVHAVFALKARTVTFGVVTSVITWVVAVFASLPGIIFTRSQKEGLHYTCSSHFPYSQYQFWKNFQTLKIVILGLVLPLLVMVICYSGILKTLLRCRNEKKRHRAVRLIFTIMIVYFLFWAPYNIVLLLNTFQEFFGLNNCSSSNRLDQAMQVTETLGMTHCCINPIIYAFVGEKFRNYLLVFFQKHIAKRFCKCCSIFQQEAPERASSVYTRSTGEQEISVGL
Assay: Antagonist activity at CCR5 (unknown origin) expressed in human MOLT4 cells assessed as inhibition of RANTES-stimulated calcium mobilization treated for 15 mins prior to RANTES addition by spectrophotometric analysis
observed_property: pIC50
Convention used: pIC50 is expressed as -log10 of the molar concentration.

Input line: Request body: readout pIC50, system UniProtKB P51681, query `CC(C)Oc1ccc(N2CCN(Cc3ccccc3[N+](=O)[O-])CC2)cc1NC(=O)c1cnccn1` . Return the value.
Output line: 4.77

---

Tested on: PC-3
Assay: Antiproliferative activity against human PC3 cells after 72 hrs by WST-1 assay
Assay type: functional, cell-based
Conditions: PC-3, 72 h
Consider the cut-off 60 µM. If the recorded IC50 is strictly smaller, the label is condition met; if not, the label is condition not met.

Input line: Below 60 µM on IC50? Entry `CC(C)Oc1ccc(N2CCN(Cc3ccc(Cl)cc3)CC2)cc1NC(=O)c1cnccn1`
Output line: condition met

Input line: Below 60 µM on IC50? Entry `CSc1ccc(CN2CCN(c3ccc(OC(C)C)c(NC(=O)c4cnccn4)c3)CC2)cc1`
Output line: condition not met

Input line: Below 60 µM on IC50? Entry `CC(C)Oc1ccc(N2CCN(Cc3ccc(S(C)(=O)=O)cc3)CC2)cc1NC(=O)c1cnccn1`
Output line: condition not met

Input line: Below 60 µM on IC50? Entry `CC(C)Oc1ccc(N2CCN(Cc3ccc([N+](=O)[O-])cc3)CC2)cc1NC(=O)c1cnccn1`
Output line: condition met

Input line: Below 60 µM on IC50? Entry `CC(C)Oc1ccc(N2CCN(Cc3ccccc3[N+](=O)[O-])CC2)cc1NC(=O)c1cnccn1`
Output line: condition not met

Query molecule follows.
Input line: Below 60 µM on IC50? Entry `CC(C)Oc1ccc(N2CCN(Cc3ccccc3)CC2)cc1NC(=O)c1cnccn1`
Output line: condition not met

---

Assay: Cytotoxicity against mouse NIH/3T3 cells after 48 hrs by neutral red uptake assay
Type: cell-based, NIH3T3
Conditions: read-out: TC50
Reported CC50 at 48 h is given for each of the following compounds.

Worked cases, CC50 at 48 h given:
Input line: Need CC50 at 48 h, item `CC(C)Oc1ccc(N2CCN(Cc3ccc(N(C)C)cc3)CC2)cc1NC(=O)c1cnccn1`
Output line: > 50 µM

Input line: Need CC50 at 48 h, item `CC(C)Oc1ccc(N2CCN(Cc3ccccc3[N+](=O)[O-])CC2)cc1NC(=O)c1cnccn1`
Output line: > 50 µM

# evaluate next
Input line: Need CC50 at 48 h, item `CC(C)Oc1ccc(N2CCN(Cc3ccc(Br)cc3)CC2)cc1NC(=O)c1cnccn1`
Output line: > 50 µM

Taken from ChEMBL document CHEMBL3259724.
